// data source = paper PMC6859858

# TARGET_OR_SYSTEM: CPSF-160;WDR33;CPSF-30 (human;human;human, UniProt Q10570;Q9C0J8;O95639 1-1443;1-425;1-269, ||)
# Sequence (Q10570 whole entry, chain 1 of 3): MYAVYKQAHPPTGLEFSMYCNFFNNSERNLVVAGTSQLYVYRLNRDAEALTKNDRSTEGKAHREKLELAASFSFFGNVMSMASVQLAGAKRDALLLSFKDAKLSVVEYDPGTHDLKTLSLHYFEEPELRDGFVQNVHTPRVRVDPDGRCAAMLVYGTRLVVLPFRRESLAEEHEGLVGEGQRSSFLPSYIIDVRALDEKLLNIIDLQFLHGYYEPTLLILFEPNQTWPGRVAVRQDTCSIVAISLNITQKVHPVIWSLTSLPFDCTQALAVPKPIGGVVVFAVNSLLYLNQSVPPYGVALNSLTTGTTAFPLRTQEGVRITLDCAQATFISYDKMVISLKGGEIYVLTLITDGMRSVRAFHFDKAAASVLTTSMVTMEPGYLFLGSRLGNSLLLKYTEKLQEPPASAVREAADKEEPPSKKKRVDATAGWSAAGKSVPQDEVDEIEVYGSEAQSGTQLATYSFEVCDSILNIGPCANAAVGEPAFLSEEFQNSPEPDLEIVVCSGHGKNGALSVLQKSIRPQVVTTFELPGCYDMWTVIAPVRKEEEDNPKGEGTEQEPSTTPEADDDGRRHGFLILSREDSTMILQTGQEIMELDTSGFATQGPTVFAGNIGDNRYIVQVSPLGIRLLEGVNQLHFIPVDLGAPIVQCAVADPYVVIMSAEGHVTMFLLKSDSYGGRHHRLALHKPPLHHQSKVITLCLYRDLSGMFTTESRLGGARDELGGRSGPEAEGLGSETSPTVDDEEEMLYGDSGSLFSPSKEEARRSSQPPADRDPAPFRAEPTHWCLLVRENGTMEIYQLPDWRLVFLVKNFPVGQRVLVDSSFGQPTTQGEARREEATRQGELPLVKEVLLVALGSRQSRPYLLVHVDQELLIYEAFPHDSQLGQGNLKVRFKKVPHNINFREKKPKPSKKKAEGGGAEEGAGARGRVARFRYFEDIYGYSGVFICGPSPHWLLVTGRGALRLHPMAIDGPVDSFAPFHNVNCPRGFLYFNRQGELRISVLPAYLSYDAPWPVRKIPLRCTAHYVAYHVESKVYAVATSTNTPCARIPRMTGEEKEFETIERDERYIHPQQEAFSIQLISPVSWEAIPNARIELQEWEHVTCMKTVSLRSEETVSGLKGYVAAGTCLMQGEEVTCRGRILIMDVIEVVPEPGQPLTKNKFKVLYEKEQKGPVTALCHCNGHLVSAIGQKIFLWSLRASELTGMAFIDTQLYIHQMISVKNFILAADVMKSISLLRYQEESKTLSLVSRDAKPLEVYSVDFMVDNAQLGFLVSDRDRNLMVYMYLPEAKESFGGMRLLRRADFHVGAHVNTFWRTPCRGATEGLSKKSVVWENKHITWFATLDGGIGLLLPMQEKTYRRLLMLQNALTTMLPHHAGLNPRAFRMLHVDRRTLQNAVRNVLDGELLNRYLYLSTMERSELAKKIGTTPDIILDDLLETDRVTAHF
# Sequence (Q9C0J8 1-425, chain 2 of 3): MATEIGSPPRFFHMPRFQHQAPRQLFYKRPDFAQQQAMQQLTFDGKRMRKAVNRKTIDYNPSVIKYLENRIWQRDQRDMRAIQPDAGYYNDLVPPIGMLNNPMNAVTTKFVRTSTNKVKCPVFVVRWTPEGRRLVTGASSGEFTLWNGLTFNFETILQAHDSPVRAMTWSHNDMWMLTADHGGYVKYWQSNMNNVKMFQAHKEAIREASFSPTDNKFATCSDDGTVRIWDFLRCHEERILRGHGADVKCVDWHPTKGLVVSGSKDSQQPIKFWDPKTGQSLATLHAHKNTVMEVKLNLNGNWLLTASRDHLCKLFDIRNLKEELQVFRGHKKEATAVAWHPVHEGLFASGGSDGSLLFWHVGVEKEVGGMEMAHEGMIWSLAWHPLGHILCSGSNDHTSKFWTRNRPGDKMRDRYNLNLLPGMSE
# Sequence (O95639 whole entry, chain 3 of 3): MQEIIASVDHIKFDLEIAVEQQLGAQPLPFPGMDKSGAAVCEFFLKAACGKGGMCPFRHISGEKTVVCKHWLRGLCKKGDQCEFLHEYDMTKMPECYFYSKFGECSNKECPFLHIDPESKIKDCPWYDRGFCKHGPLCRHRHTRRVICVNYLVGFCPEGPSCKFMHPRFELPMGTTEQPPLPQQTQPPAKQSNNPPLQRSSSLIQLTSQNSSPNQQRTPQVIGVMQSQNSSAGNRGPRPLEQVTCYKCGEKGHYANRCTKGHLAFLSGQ
# ASSAY_TEXT: fluorescence polarization
QUANTITY_MEASURED: Kd (nM)
Numbers only; they are read as nM.

(Q) Output measured Kd for this item: AACCUCCAAUAAACAAC (ssRNA) [17-mer AAUAAA PAS]
(A) 0.25
